# Test system: Plasmodium falciparum
# measurement-protocol: microbe, parasite or virus in culture
# assay-conditions: K1
# Description: Antimalarial activity against multidrug-resistant Plasmodium falciparum K1
readout-label: log10 IC50 (log10 of the value in nM)
# log10 transformed; quantity=IC50; unit=nM

// known answers, use as guide
COc1ccc(-c2ccc3ncc(-c4ccncc4)n3n2)cc1OC; 1.15
CS(=O)(=O)c1ccc(-c2cnc3ccc(-c4ccc(C(F)(F)F)nc4)nn23)cc1; 2.80
FC(F)(F)Oc1ccc(-c2ccc3ncc(-c4ccncc4)n3n2)cc1; 2.99
c1cc(-c2ccc3ncc(-c4ccncc4)n3n2)c2ccncc2c1; 2.28
NCc1cccc(-c2ccc3ncc(-c4ccncc4)n3n2)c1; 2.77
CS(=O)(=O)Nc1cccc(-c2ccc3ncc(-c4ccc([S+](N)[O-])cc4)n3n2)c1 (stereo unspecified); 1.30

Request: Would you kindly share the measured log10 IC50 for `CS(=O)(=O)c1ccc(-c2cnc3ccc(-c4cccc(S(C)(=O)=O)c4)nn23)cc1` ?
Result: 0.80

Request: Also `c1cc(-c2ccc3ncc(-c4ccncc4)n3n2)cc(N2CCOCC2)c1` , if possible.
Result: 2.39

Request: Also `CC(C)(C)c1ccc(-c2ccc3ncc(-c4ccncc4)n3n2)cc1` , if possible.
Result: 3.15

Request: Also `CC(C)(C)c1cccc(-c2ccc3ncc(-c4ccncc4)n3n2)c1` , if possible.
Result: 2.09

###

# System: Plasmodium falciparum
# measurement-protocol: microbe, parasite or virus in culture
# assay-conditions: K1
readout-label: IC50

// known answers, use as guide
CS(=O)(=O)c1ccc(-c2cnc3ccc(-c4cccc(S(=O)(=O)NC5CC5)c4)nn23)cc1; 0.58 nM
c1cncc(-c2ccc3ncc(-c4cccnc4)n3n2)c1; 1070 nM
CS(=O)(=O)c1ccc(-c2cnc3ccc(-c4ccc(C(F)(F)F)c(F)c4)nn23)cc1; 315 nM

Please find the next compound below.
Request: Would you kindly share the measured IC50 for `CS(=O)(=O)c1ccc(-c2cnc3ccc(-c4cc(C(=O)NC5CCCCC5)ccc4F)nn23)cc1` ?
Result: > 2030 nM

###

# measurement-protocol: Tmax in Sprague-Dawley rat at 3.6 mg/ml, po
# Assay type: ADME, organism-based
# assay-conditions: in vivo
readout-label: Tmax (h)
Form entry: value (h) — number only.

Request: Would you kindly share the measured Tmax for `CS(=O)(=O)c1ccc(-c2cnc3ccc(-c4cccc(S(C)(=O)=O)c4)nn23)cc1` ?
Result: 3

###

# measurement-protocol: Apparent Cmax in GFP-transfected Plasmodium berghei ANKA infected mouse at 40 mg/kg, po qd for 4 days
# Format: ADME, organism-based
# Parameters: dose 40 mg/kg, route oral
# assay-conditions: in vivo
Reported Cmax values for a set of compounds
Form entry: value (nM) — number only.

// known answers, use as guide
CS(=O)(=O)c1ccc(-c2cnc3ccc(-c4cccc(S(C)(=O)=O)c4)nn23)cc1; 2200
CS(=O)(=O)c1ccc(-c2cnc3ccc(-c4cccc(S(N)(=O)=O)c4)nn23)cc1; 20

Request: Would you kindly share the measured Cmax for `CS(=O)(=O)c1ccc(-c2cnc3ccc(-c4cccc(C(=O)N5CCNCC5)c4)nn23)cc1` ?
Result: 10

###

# Tested on: Plasmodium falciparum
# measurement-protocol: microbe, parasite or virus in culture
# assay-conditions: K1
Reported pIC50 values for a set of compounds
pIC50 here: minus log base 10 of the concentration, concentration in moles per litre.

Request: Would you kindly share the measured pIC50 for `CN1CCN(S(=O)(=O)c2ccc(-c3ccc4ncc(-c5ccncc5)n4n3)cc2)CC1` ?
Result: 5.90

Request: Also `CC(C)(C)NC(=O)c1ccc(F)c(-c2ccc3ncc(-c4ccc(S(C)(=O)=O)cc4)n3n2)c1` , if possible.
Result: 6.81

Request: Also `FC(F)(F)Oc1cccc(-c2ccc3ncc(-c4ccncc4)n3n2)c1` , if possible.
Result: 6.93

Request: Also O[C@@H](c1cc(C(F)(F)F)nc2c(C(F)(F)F)cccc12)[C@H]1CCCCN1 (relative stereo) [(S,R)-MEFLOQUINE] , if possible.
Result: 8.08

Hey, just so you know, these numbers are from ChEMBL document CHEMBL3232977.
